- Tested Target: Gal(b1-4)GlcNAc(b1-3)Gal(b1-4)GlcNAc(b1-3)[Gal(b1-4)GlcNAc(b1-3)Gal(b1-4)GlcNAc(b1-6)]GalNAc
- Test: glycan array binding signal (z-score within array); higher = stronger binding
- Condition Set: glycan notation: IUPAC condensed, linker removed
This is one part of a sample in which the strongest signals are shown more often than they occur.
Reported Property: glycan array binding signal (z-score)
// no unit string in output, number only

Determine its reported glycan array binding signal (z-score): SJCP1084 (Schistosoma japonicum) (protein) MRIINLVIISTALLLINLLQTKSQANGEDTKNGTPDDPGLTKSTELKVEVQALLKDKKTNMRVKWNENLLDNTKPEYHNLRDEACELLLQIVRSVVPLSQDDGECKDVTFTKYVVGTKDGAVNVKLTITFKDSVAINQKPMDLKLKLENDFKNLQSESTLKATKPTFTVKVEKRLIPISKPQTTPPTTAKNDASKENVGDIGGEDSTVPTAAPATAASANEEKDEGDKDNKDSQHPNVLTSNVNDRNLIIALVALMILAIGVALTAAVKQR 1.47

Determine its reported glycan array binding signal (z-score): BabA (Helicobacter pylori), O52269_HELPY (protein) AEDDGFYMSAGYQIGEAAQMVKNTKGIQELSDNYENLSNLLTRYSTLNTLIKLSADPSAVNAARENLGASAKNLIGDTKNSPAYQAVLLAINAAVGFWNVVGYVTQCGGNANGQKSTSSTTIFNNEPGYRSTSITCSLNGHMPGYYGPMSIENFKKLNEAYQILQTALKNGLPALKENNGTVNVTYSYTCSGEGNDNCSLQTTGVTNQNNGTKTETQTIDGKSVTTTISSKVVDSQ 4.39

Determine its reported glycan array binding signal (z-score): Protein L(B1-B4) (Finegoldia magna), Q51912 (protein) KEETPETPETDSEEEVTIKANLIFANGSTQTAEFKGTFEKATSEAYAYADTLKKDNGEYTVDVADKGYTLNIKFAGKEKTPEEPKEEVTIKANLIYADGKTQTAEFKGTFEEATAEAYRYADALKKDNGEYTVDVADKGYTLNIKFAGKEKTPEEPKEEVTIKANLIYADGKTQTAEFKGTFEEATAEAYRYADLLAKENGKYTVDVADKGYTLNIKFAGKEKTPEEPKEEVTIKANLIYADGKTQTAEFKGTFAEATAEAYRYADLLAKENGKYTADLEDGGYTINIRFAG 4.22

Determine its reported glycan array binding signal (z-score): SJCP1531 (Schistosoma japonicum) (protein) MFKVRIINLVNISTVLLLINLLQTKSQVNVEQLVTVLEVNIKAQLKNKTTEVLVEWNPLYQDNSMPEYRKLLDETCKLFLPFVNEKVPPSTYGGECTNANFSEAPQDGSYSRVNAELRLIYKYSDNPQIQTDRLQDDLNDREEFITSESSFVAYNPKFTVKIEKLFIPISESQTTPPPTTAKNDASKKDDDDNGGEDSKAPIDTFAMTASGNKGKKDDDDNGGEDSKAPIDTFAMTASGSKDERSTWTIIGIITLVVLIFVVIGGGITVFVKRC 2.8
